B1: BTBD10 (parent)
chain: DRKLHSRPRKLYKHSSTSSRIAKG

Variants of: B1
experiment: protein stability index of a GFP-peptide fusion (GPS, HEK-293T) (PSI 1-6); higher = more stable;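 also: lentivirally expressed fusions sorted by FACS into six bins by GFP to DsRed ratio, PSI derived from sequencing read proportions per bin multiplied by bin number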
assay.setup: c terminus: a fixed tail appended
reported.endpoint: protein stability index

sequence.string	reported.endpoint	quantitative.readout
DRKLCSRPRKLYKHSSTSSRIAKG	protein stability index	3.9
DRKLHSNPRKLYKHSSTSSRIAKG	protein stability index	4.1
DEKLHSRPRKLYKHSSTSSRIAKG	protein stability index	4.39
DRKLHSRPRKLYKHSSTSSRIAKV	protein stability index	3.74
DRVLHSRPRKLYKHSSTSSRIAKG	protein stability index	3.92
DRKLHSRPRKLYKHSSTSSRNAKG	protein stability index	4.03
DRKAHSRPRKLYKHSSTSSRIAKG	protein stability index	4.42
DRKLHSRPRNLYKHSSTSSRIAKG	protein stability index	4.07
DRKLHSEPRKLYKHSSTSSRIAKG	protein stability index	4.41
DRKLHSRPRKLYKHNSTSSRIAKG	protein stability index	3.66
DRKLHSRPRKLYKHSSRSSRIAKG	protein stability index	4.45
DRKLHSRPRKLYKHSSTSSRIKKG	protein stability index	3.68
DRKLHSRPRPLYKHSSTSSRIAKG	protein stability index	3.25
DRKLHSRPRKLYKHSSTSTRIAKG	protein stability index	4.4
DRKLHSRMRKLYKHSSTSSRIAKG	protein stability index	3.02
DRKMHSRPRKLYKHSSTSSRIAKG	protein stability index	4.23
DRKLHSRPRKLYKHSSTSSRDAKG	protein stability index	4.6
DRKLHSRPRKDYKHSSTSSRIAKG	protein stability index	3.71
DRKYHSRPRKLYKHSSTSSRIAKG	protein stability index	3.8
DRKLHSRPRKLYKKSSTSSRIAKG	protein stability index	3.64
DRKLHSRPGKLYKHSSTSSRIAKG	protein stability index	4.3
DRKLHSRPRKLQKHSSTSSRIAKG	protein stability index	4.01
DRKLHSRPRKLYKHSSTSSRIASG	protein stability index	3.41
DRKLHSRPRKLYKHTSTSSRIAKG	protein stability index	4.17
DRKLHSRPRKLYKHSSTSSSIAKG	protein stability index	3.85
DRKLHSLPRKLYKHSSTSSRIAKG	protein stability index	2.84
DRKLHSRPRKLYKHDSTSSRIAKG	protein stability index	4.22

All figures here come from the supplement of paper PMC10567573.
